- Test system: TNFα
- TEST METHOD NOTES: cells
- Assay type: cell-based, human
- TEST CONDITIONS: Homo sapiens, Monocyte, LPS-stimulated human monocytes, TNFα content; read-out: EC50 TNF
Note to self: EC50 under 50 nM means true (1), ties and anything higher get false (0).

{"COMPOUND": "CNC(=O)[C@H](C)Nc1cc(-c2ccc3cc(C#N)cnn23)ncc1C(=O)NC[C@@H](F)C(C)(C)O [Example 108]", "CLASS LABEL": "false (0)"}
{"COMPOUND": "CN(C)C(=O)O[C@H]1CC[C@@H](Nc2cc(-c3ccc4cc(C#N)cnn34)ncc2C(=O)NC[C@@H](F)C(C)(C)O)CC1 [Example 167]", "CLASS LABEL": "false (0)"}
{"COMPOUND": "CC(C)(CCNC(=O)c1cnc(-c2ccc3cc(C#N)cnn23)cc1NC12CCC(O)(CC1)CC2)NC(=O)OC(C)(C)C [Example 347]", "CLASS LABEL": "true (1)"}
{"COMPOUND": "CC(C)(O)[C@H](F)CNC(=O)c1cnc(-c2ccc3cc(C#N)cnn23)cc1Nc1ccc(CN2CCCC2=O)cc1 [Example 200]", "CLASS LABEL": "true (1)"}
{"COMPOUND": "CC(C)(O)[C@H](F)CNC(=O)c1cnc(-c2ccc3cc(C#N)cnn23)cc1N[C@H]1CCC[C@H](O)C1 [Example 63]", "CLASS LABEL": "false (0)"}
{"COMPOUND": "CC(C)(O)[C@H](F)CNC(=O)c1cnc(-c2ccc3cc(C#N)cnn23)cc1N[C@H]1CCC[C@@H](N)C1 [Example 533]", "CLASS LABEL": "false (0)"}
{"COMPOUND": "CNC(=O)O[C@H]1C[C@H](Nc2cc(-c3ccc4cc(C#N)cnn34)ncc2C(=O)NC[C@@H](F)C(C)(C)O)C1 [Example 162]", "CLASS LABEL": "false (0)"}
{"COMPOUND": "CC(C)(O)[C@H](F)CNC(=O)c1cnc(-c2ccc3cc(C#N)cnn23)cc1NCCCS(C)(=O)=O [Example 103]", "CLASS LABEL": "false (0)"}
{"COMPOUND": "CC(C)(C)OC(=O)NC12CCC(Nc3cc(-c4ccc5cc(C#N)cnn45)ncc3C(=O)NC[C@@H](F)C(C)(C)O)(CC1)CC2 [Example 304]", "CLASS LABEL": "false (0)"}
{"COMPOUND": "CC(C)(O)[C@H](F)CNC(=O)c1cnc(-c2ccc3cc(C#N)cnn23)cc1N[C@H]1C[C@H](CNC(=O)C2CCO2)C1 (stereo partly drawn) [Example 614]", "CLASS LABEL": "false (0)"}
{"COMPOUND": "CNC(=O)c1ccc(Nc2cc(-c3ccc4cc(C#N)cnn34)ncc2C(=O)NC[C@@H](F)C(C)(C)O)cc1 [Example 350]", "CLASS LABEL": "true (1)"}
{"COMPOUND": "CC(C)(O)[C@H](F)CNC(=O)c1cnc(-c2ccc3cc(C#N)cnn23)cc1NC1C2CC3CC1CC(O)(C3)C2 (stereo partly drawn) [Example 419]", "CLASS LABEL": "false (0)"}
{"COMPOUND": "CN1CCN(C(=O)CNC(=O)c2cnc(-c3ccc4cc(C#N)cnn34)cc2NC23CCC(O)(CC2)CC3)CC1 [Example 789]", "CLASS LABEL": "true (1)"}
{"COMPOUND": "COC(=O)N[C@H]1CC[C@H](Nc2cc(-c3ccc4cc(C#N)cnn34)ncc2C(=O)NCC#N)CC1 [Example 268]", "CLASS LABEL": "true (1)"}

All values here come from patent US10336762B2.
